# IC50 values compiled below
# target.of.assay: gastrin receptor (Cavia porcellus, UniProt H0VZC5)
# Construct: guinea-pig gastric glands; from tissue; host or cells: gastric glands of male guinea pigs (animals from COB LABO)
# Sequence (H0VZC5 1-426): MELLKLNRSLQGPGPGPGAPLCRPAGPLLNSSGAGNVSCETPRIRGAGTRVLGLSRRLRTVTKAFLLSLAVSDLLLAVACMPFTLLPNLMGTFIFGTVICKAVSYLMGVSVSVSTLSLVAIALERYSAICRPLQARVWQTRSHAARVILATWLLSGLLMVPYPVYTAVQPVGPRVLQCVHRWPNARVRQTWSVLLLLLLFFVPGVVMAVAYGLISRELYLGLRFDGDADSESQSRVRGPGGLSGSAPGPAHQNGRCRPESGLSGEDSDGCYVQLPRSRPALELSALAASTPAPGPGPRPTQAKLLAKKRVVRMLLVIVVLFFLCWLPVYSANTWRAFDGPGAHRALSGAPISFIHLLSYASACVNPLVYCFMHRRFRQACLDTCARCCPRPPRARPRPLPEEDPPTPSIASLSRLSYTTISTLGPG
# assay.method.text: Binding affinity for the gastrin receptor, guinea-pig gastric glands, iodine-125-labelled gastrin
# cond: guinea-pig gastric glands; Table I; read-out: IC50 Receptor bond Gastrin
// note: answer is a bare numeric in µM

molecule | units.text | value
O=C1C(NC(=S)Nc2ccc(Br)cc2)N=C(c2ccccc2)c2cccc3c2N1CCC3 (racemic) [Example 10] | µM | 0.0032
O=C(Nc1cnc2ccccc2c1)NC1N=C(c2ccccc2)c2cccc3c2N(CCC3)C1=O (racemic) | µM | 0.298
Cc1cccc(NC(=O)N[C@@H]2N=C(c3ccccc3)c3cccc4c3N(CCC4)C2=O)c1 | µM | 0.0405

Now consider the entry below.
Value of IC50 reported for the molecule Cc1cccc(NC(=O)NC2N=C(c3ccccc3)c3cccc4c3N(CCC4)C2=O)c1 (racemic) is 0.0015
